Measured melting point, listed per entry for reference.

// known answers, use as guide
CCOC(=O)C1CCc2c(c3ccccc3n2C(=O)c2ccccc2)C1 (centres undefined) | 67 to 69 °C
CCOC(=O)C1=CC2(CCC1S(=O)(=O)Nc1ccc(F)cc1Cl)CCC1(COCOO1)CO2 (centres undefined) | 156 to 157 °C
O=C(O)CCc1cc(-c2ccc(Cl)cc2)n(-c2ccccc2)n1 | 138 to 139 °C
CCOC(=O)C(C)(C)Oc1ccc(-c2ccc(CCNC(=O)c3c(OC)cccc3OC)cc2)cc1 | < 20 °C
COC(=O)c1ccc(-c2nsc3nc4ccccc4n23)cc1 | 204 to 206 °C
CCN(CC)c1ccc(N(c2ccc(N(C)C)cc2)C2(c3ccc(N(CC)CC)cc3C)OC(=O)c3ccccc32)cc1 (centres undefined) | 68 to 83 °C

Exercise: May I ask what melting point has been recorded for COc1ccc(/C=C(\C#N)Cc2ccccc2)cc1OC1CCCC1 ?
Solution: 111 to 112 °C

Exercise: May I ask what melting point has been recorded for CCNC(=O)C1Cc2c(n(C)c3ccc(OC)cc23)C1 (centres undefined) ?
Solution: 162 to 163 °C

Exercise: May I ask what melting point has been recorded for Cc1ncc2n1-c1ccc(Cl)cc1C(c1ccccc1F)N(O)C2 (centres undefined) ?
Solution: 246 to 248 °C

---

Measured melting point, listed per entry for reference.

// known answers, use as guide
Nc1cccc(S(F)(F)(F)(F)F)c1 | 32 to 35 °C
CCCCCCCCOc1ccc(-c2ccc(O)c(F)c2F)cc1 | 145 °C
Cc1ccc(=NS(=O)(=O)C(F)(F)F)n(-c2cccc(C(F)(F)F)c2)c1 | 206 °C

Exercise: May I ask what melting point has been recorded for CCN(CCO)Cc1cc(Nc2nc(Nc3cc4c(cc3OC)CCN(CC(=O)N(C)C)CC4)ncc2Cl)ccc1F ?
Solution: 71 to 75 °C

Exercise: May I ask what melting point has been recorded for CCOC(=O)c1c(SCc2ccc(OC)cc2)nc2c(F)c(F)c(F)cc2c1O ?
Solution: 174 to 176 °C

Exercise: May I ask what melting point has been recorded for O=c1sc2cc(Cl)ccc2n1CCCCl ?
Solution: 131 to 132 °C

Exercise: May I ask what melting point has been recorded for CCOC(=O)c1cn(N=C(C)C)c2c(F)c(F)c(F)cc2c1=O ?
Solution: 166 °C

Exercise: May I ask what melting point has been recorded for O=c1c2cc(F)c(Cl)nc2n(-c2ccccc2F)c(=O)n1OCc1ccccc1 ?
Solution: 199 to 200 °C

---

quantity_measured: melting point

[N-]=[N+]=C1C(=O)CC2CCCCC2C1=O (stereo not given) | 81 to 83 °C
O=C(C(=O)C12CC3CC(CC(C3)C1)C2)c1ccc(OC(F)F)cc1 | 118 to 120 °C
Cc1ccc(-n2nc(C(C)(C)C)cc2NC(=O)Nc2ccc(OCCCc3ccncc3)c3ccccc23)cc1 | 205 to 207 °C
Cc1ccc(-c2ccc(C(=O)Nc3ccc4nc(CN5C(C)(C)CCCC5(C)C)ccc4c3)cn2)cc1 | 246 to 247 °C

Exercise: May I ask what melting point has been recorded for CC(=O)OCC(C)(COC(C)=O)C(=O)O ?
Solution: 85 °C

Exercise: May I ask what melting point has been recorded for C=CCc1c(F)ccc2c3c([nH]c12)C(CC)(CC(=O)O)OCC3 (stereo not given) ?
Solution: 123 to 125 °C

Exercise: May I ask what melting point has been recorded for COc1ccc2c(c1)OC(C)(C)CC2=O ?
Solution: 77 to 78 °C

---

quantity_measured: melting point

// known answers, use as guide
CCC1(O)CC(=O)OCc2c1cc1n(c2=O)Cc2c-1nc1ccccc1c2C1CCCCC1 (stereo unspecified) | > 250 °C
O=C1CSC(=S)N1N=c1sc2ccc(C(F)(F)F)cc2s1 | 285 to 288 °C
N#CCNCCc1c[nH]c2ccc(Cl)cc12 | 80 °C
Cn1c(COc2ccc(CC3SC(=O)NC3=O)cc2)nc2ccc(Oc3cccc(NC(=O)NCc4ccc(C(F)(F)F)cc4)c3)cc21 (stereo unspecified) | 128 to 132 °C
CC(=O)c1c(C)[nH]c(C2CCCCC2)c1C | 186 to 188 °C

# input for lookup
Exercise: May I ask what melting point has been recorded for CN(C)S(=O)(=O)n1ccc2cnccc21 ?
Solution: 87 °C

---

Measured melting point, listed per entry for reference.

Cc1nc(NC(=O)c2cnn3c(C(F)F)cc(-c4ccc(C(F)(F)F)cc4)nc23)sc1S(=O)(=O)N1CCN(C)CC1 | 269 °C

Exercise: May I ask what melting point has been recorded for COC1=CC(=O)CN(Cc2ccccc2)C1 ?
Solution: 113 to 115 °C

Exercise: May I ask what melting point has been recorded for CC(C)(Oc1ccc(Cl)cc1)C(=O)OCc1ncc(C(=O)O)s1 ?
Solution: 124 °C

Exercise: May I ask what melting point has been recorded for CCCCCCCCCCCCCCCCCCN(CCCCCCCCCCCCCCCCCC)c1ccc([N+](=O)[O-])cc1[N+](=O)[O-] ?
Solution: 55.5 to 57.5 °C

Exercise: May I ask what melting point has been recorded for CCCC[C@H](NC(=O)[C@H](CC(C)C)NC(=O)c1cc(F)ccc1F)C(=O)CSCc1ccco1 ?
Solution: 102 °C

Exercise: May I ask what melting point has been recorded for COC(=O)C1=C(C)NC(C)=C(/C=C/S(=O)(=O)N(C)Cc2ccccc2)C1c1cccc([N+](=O)[O-])c1 (stereo not given) ?
Solution: 208 to 210 °C

Exercise: May I ask what melting point has been recorded for COc1ccc(CNCC(O)COc2cccc3[nH]c4ccccc4c23)c(OC)c1 (stereo not given) ?
Solution: 152 to 154 °C

Exercise: May I ask what melting point has been recorded for CCNC(=NS(=O)(=O)c1ccc(C#N)cc1)N1CC(CC)C=N1 (stereo not given) ?
Solution: 146 to 149 °C

Exercise: May I ask what melting point has been recorded for c1cc2c3c(cccc3c1)C(NCCCCn1ccnc1)=N2 ?
Solution: 225 to 230 °C

Exercise: May I ask what melting point has been recorded for O=C(O)c1cccc(CN2CCC(c3cn(Cc4ccco4)c4ccccc34)CC2)c1 ?
Solution: 154 to 155 °C

Exercise: May I ask what melting point has been recorded for Cc1c(C)c2c(c(C)c1O)CCC(C)(CCc1ccccc1)O2 (stereo not given) ?
Solution: 96 to 98 °C

Exercise: May I ask what melting point has been recorded for Nc1cc(F)c(F)c(Cl)c1Cl ?
Solution: 94 to 97.5 °C

Exercise: May I ask what melting point has been recorded for CC1(C)OC(C=Cc2ccnc3ccccc23)=CC1=O ?
Solution: 117 to 118 °C

Exercise: May I ask what melting point has been recorded for COc1nc(C2=NC(=O)C(C)(C(C)C)N2)c(C(=O)O)cc1C (stereo not given) ?
Solution: 151 to 153 °C

Exercise: May I ask what melting point has been recorded for CC(Oc1ccc(Nc2cnc3cc(Cl)ccc3c2)cc1)C(=O)O (stereo not given) ?
Solution: 150 °C

Exercise: May I ask what melting point has been recorded for CC(=NCCO)C1CCC2C3CCC4CC(O)C(N5CCOC(C)C5)CC4(C)C3CCC12C (stereo not given) ?
Solution: 162 to 165 °C

Exercise: May I ask what melting point has been recorded for Cc1cc([N+](=O)[O-])cc(C)c1Cl ?
Solution: 101 to 105 °C

Exercise: May I ask what melting point has been recorded for CCc1nn(C2CCCC2)c2cc(C(=O)Nc3cccc4ncccc34)ccc12 ?
Solution: 176 to 178 °C

Exercise: May I ask what melting point has been recorded for N#CC(=Cc1ccc(O)c(O)c1)C(=O)Nc1ccccc1 ?
Solution: 258 °C

Exercise: May I ask what melting point has been recorded for O=C(COc1ccccc1)NC1C(=O)N2C(C(=O)OCc3ccccc3)N=CSC12 (stereo not given) ?
Solution: 142 to 143 °C

---

Measured melting point, listed per entry for reference.

CC(C)C(=O)c1c(-c2ccc(F)cc2)nn2cc(C(F)(F)F)ccc12 | 129 to 130 °C
CC1SC(C(=O)Nc2ccc(CN3CCOC3=O)cc2)Cc2cc3c(cc2C1=O)OCO3 (stereo not drawn) | 231 to 233 °C
COc1cc2ncc(C#N)c(Nc3ccc(O)cc3Cl)c2cc1OC | > 250 °C

Exercise: May I ask what melting point has been recorded for O=C(Nc1cccc(Cl)c1)Nc1ccc(Br)cc1-c1nnn[nH]1 ?
Solution: 258 to 263 °C

Exercise: May I ask what melting point has been recorded for COc1ccc2c(c1OC)C(=O)O[C@@H]2[C@H]1c2c(c(Br)c3c(c2OC)OCO3)CCN1C ?
Solution: 169 to 170 °C

Exercise: May I ask what melting point has been recorded for N#Cc1c2ccccc2nc2ccc(Cl)cc12 ?
Solution: 208 °C

Exercise: May I ask what melting point has been recorded for C=CCN1CCN(C2=NC3(C=CC(=O)C=C3)C(Sc3ccccc3)=C2)CC1 ?
Solution: 175 °C

Exercise: May I ask what melting point has been recorded for CC1(C)CC2(CC(C)(C)N1O)NC(=O)N(CC1CO1)C2=O (stereo not drawn) ?
Solution: 154 °C

Exercise: May I ask what melting point has been recorded for CCCCCCCCCNC(=O)NCC(=O)O ?
Solution: 144 to 145 °C

Exercise: May I ask what melting point has been recorded for O=S(=O)(Nc1cccc(Nc2nc(NC3CCCC3)c3nc[nH]c3n2)c1)C(F)(F)F ?
Solution: 243 to 246 °C

Exercise: May I ask what melting point has been recorded for O=C(NCC1CC1)NCC1CC1 ?
Solution: 127 to 130 °C

Exercise: May I ask what melting point has been recorded for CCCCCCCCOc1ccc(-c2ccc(OC(F)F)cc2)cc1 ?
Solution: 104 °C

Exercise: May I ask what melting point has been recorded for CC(=O)NC[C@H]1CN(c2ccc(N3CCC(F)(CN)CC3)c(F)c2)C(=O)O1 ?
Solution: 152 to 155 °C

Exercise: May I ask what melting point has been recorded for Cn1cc(Br)cc([N+](=O)[O-])c1=O ?
Solution: 122 to 123 °C

Exercise: May I ask what melting point has been recorded for CC(C)[C@H](NC(=O)CCC(=O)Nc1ccccc1)C(N)=O ?
Solution: 218 to 220 °C

Exercise: May I ask what melting point has been recorded for CC(=O)c1cc(C)cc(NC(=O)c2nnnn2Cc2ccccc2)c1O ?
Solution: 183 to 184 °C

Exercise: May I ask what melting point has been recorded for O=C(Nc1ccc(C(=O)N2Cc3ccccc3Cc3ccccc32)cc1)c1ccc(Cl)c(Cl)c1 ?
Solution: 212 to 215 °C

Exercise: May I ask what melting point has been recorded for O=C(c1ccccc1CN1C(=O)C2(COc3cc4c(cc32)CCO4)c2ccccc21)N1CCCCC1 (stereo not drawn) ?
Solution: 168 to 170 °C

Exercise: May I ask what melting point has been recorded for O=C1CCC2=C(CCc3cccc(F)c32)N1 ?
Solution: 199 °C

Exercise: May I ask what melting point has been recorded for O=C(O)c1ccc(-c2ccccc2O)cc1 ?
Solution: 176 to 178 °C
